Cited source for all entries: patent US20060069132A1

# System: pigweed
# methodSummary: Test B pre-/postemergence herbicide test
# Assay type: in vivo, Amaranthus retroflexus
# conditionDescription: 125 g ai/ha; 0 is no effect, 100 is complete control; preemergence
Entry flag: class 1 if Plant response rating (0 to 100 scale), Pigweed reaches 80; class 0 if it does not.

>  <compound>
CCN(CC)C(=O)c1ccnc(NC(=O)c2nn(C(C)(C)C)nc2C)c1

>  <answerLabel>
class 0

$$$$
>  <compound>
Cc1nn(C(C)C)nc1C(=O)Nc1cccc(C(=O)N(C)C)c1

>  <answerLabel>
class 0

$$$$
>  <compound>
CCC1=NN(C(C)(C)C)CC1C(=O)Nc1cc(C(=O)N(C)C)ccc1F (racemic)

>  <answerLabel>
class 1

$$$$
>  <compound>
CCN(CC)C(=O)c1cncc(NC(=O)c2nn(C(C)(C)C)nc2C)c1

>  <answerLabel>
class 0

$$$$
>  <compound>
CCOC(=O)c1ccc(F)c(NC(=O)C2CN(C(C)(C)C)N=C2CC)c1 (racemic)

>  <answerLabel>
class 0

$$$$
>  <compound>
C=CCNC(=O)c1cccc(NC(=O)c2nn(C(C)(C)C)nc2CC)c1

>  <answerLabel>
class 1

$$$$
>  <compound>
C#CCNC(=O)c1cccc(NC(=O)c2nn(C(C)(C)C)nc2C)c1

>  <answerLabel>
class 0

$$$$
>  <compound>
CCn1nc2c(c1C(=O)Nc1cc(C(=O)N(C)C)ccc1F)CCC2(C)C

>  <answerLabel>
class 0

$$$$
>  <compound>
C=CCNC(=O)c1ccc(F)c(NC(=O)c2nn(C(C)(C)C)nc2CC)c1

>  <answerLabel>
class 0

$$$$
>  <compound>
CCNC(=O)c1cccc(NC(=O)c2nn(C(C)(C)C)nc2C)c1

>  <answerLabel>
class 1

$$$$

* * *

Recorded Plant response rating, Cupgrass, Woolly values for a group of compounds are listed next.
# System: woolly cupgrass
# methodSummary: Test C pre-/postemergence herbicide test
# Assay type: in vivo, Eriochloa villosa
# conditionDescription: 250 g ai/ha; scale 0-100; preemergence

>  <structureNotation>
C=CCNC(=O)c1cccc(NC(=O)c2sc(C(C)(C)C)nc2CC)c1

>  <Plant response rating, Cupgrass, Woolly>
5

$$$$
>  <structureNotation>
CCn1nc(C(C)(C)C)cc1C(=O)Nc1cccc(OC(F)F)c1

>  <Plant response rating, Cupgrass, Woolly>
5

$$$$
>  <structureNotation>
CCNC(=O)c1cccc(NC(=O)c2sc(C(C)(C)C)nc2CC)n1

>  <Plant response rating, Cupgrass, Woolly>
0

$$$$
>  <structureNotation>
CCNC(=O)c1cccc(NC(=O)c2sc(C(C)(C)C)nc2C)c1

>  <Plant response rating, Cupgrass, Woolly>
10

$$$$
>  <structureNotation>
CCc1nn(C(C)(C)C)cc1C(=O)Nc1cc(C(=O)N(C)C)ccn1

>  <Plant response rating, Cupgrass, Woolly>
95

$$$$
>  <structureNotation>
CCNC(=O)c1cccc(NC(=O)c2nn(C(C)(C)C)nc2C)c1

>  <Plant response rating, Cupgrass, Woolly>
60

$$$$

* * *

# System: barnyardgrass
# methodSummary: Test B flooded paddy test
# Type: in vivo, Echinochloa crus-galli
# conditionDescription: 1000 g ai/ha, visual rating, scale 0 to 100 (0 no effect, 100 complete control), 13 to 15 days
Listing of recorded Barnyardgrass plant response rating by entry.
measuredParameter: Barnyardgrass plant response rating

>  <structureNotation>
CCn1nc(C(C)(C)C)cc1C(=O)Nc1nc(OC)cc(OC)n1

>  <observedMeasurement>
0

$$$$
>  <structureNotation>
CCCCNS(=O)(=O)c1cccc(NC(=O)c2cc(C(C)(C)C)nn2C)c1

>  <observedMeasurement>
0

$$$$
>  <structureNotation>
CCNC(=O)c1cccc(NC(=O)c2cn(C(C)(C)C)nc2C)c1

>  <observedMeasurement>
60

$$$$
>  <structureNotation>
CCNC(=O)c1cccc(NC(=O)c2cn(C(C)(C)C)nc2CC)c1

>  <observedMeasurement>
80

$$$$
>  <structureNotation>
CCc1nc(C(C)(C)C)sc1C(=O)Nc1cc(C(=O)N(CC)CC)ccc1F

>  <observedMeasurement>
50

$$$$
>  <structureNotation>
C=Cn1nc(C(C)(C)C)cc1C(=O)Nc1cccc(C(=O)NCC)c1

>  <observedMeasurement>
90

$$$$
>  <structureNotation>
CCNC(=O)c1cccc(NC(=O)c2cn(C(C)(C)C)nc2C(F)(F)F)c1

>  <observedMeasurement>
80

$$$$
>  <structureNotation>
CCn1nc(C(C)(C)C)cc1C(=O)Nc1cccc2c1CCN(C1CC1)C2=O

>  <observedMeasurement>
30

$$$$
>  <structureNotation>
CCN(CC)C(=O)c1cccc(NC(=O)c2nn(C(C)(C)C)cc2C(F)(F)F)c1

>  <observedMeasurement>
0

$$$$

* * *

# Tested on: smallflower umbrella sedge
# methodSummary: Test C flooded paddy test
# Assay type: in vivo, Cyperus difformis
# conditionDescription: 500 g ai/ha, visual rating after 12 to 14 days, scale 0 to 100 (0 no effect, 100 complete control)

>  <compound>
Cc1nn(C(C)(C)C)nc1C(=O)Nc1cccc(C(=O)N2CC=CC2)c1 [Compound 393]

>  <Plant response rating, Sedge, Umbrella>
85

$$$$
>  <compound>
C#CCNC(=O)c1cccc(NC(=O)c2cc(C(C)(C)C)nn2CC)c1 [Compound 47]

>  <Plant response rating, Sedge, Umbrella>
80

$$$$
>  <compound>
CCOC(=O)c1cc(NC(=O)c2cc(C(C)(C)C)nn2CC)ccc1OC [Compound 96]

>  <Plant response rating, Sedge, Umbrella>
95

$$$$
>  <compound>
CCC1=NN(C(C)(C)C)CC1C(=O)Nc1cc(C(=O)N(C)C)ccc1F (racemic) [Compound 343]

>  <Plant response rating, Sedge, Umbrella>
90

$$$$
>  <compound>
CC(=NO)c1cccc(NC(=O)c2cc(C(C)(C)C)nn2CCF)c1 [Compound 115]

>  <Plant response rating, Sedge, Umbrella>
95

$$$$
>  <compound>
CCn1nc(C(C)(C)C)cc1C(=S)Nc1cc(C(=S)N(C)C)ccc1F [Compound 305]

>  <Plant response rating, Sedge, Umbrella>
90

$$$$
>  <compound>
CCOC(=O)c1cccc(NC(=O)c2cc(C(C)(C)C)nn2CC)c1C [Compound 88]

>  <Plant response rating, Sedge, Umbrella>
80

$$$$
>  <compound>
CCOC(=O)c1cncc(NC(=O)c2cc(C(C)(C)C)nn2CC)c1 [Compound 255]

>  <Plant response rating, Sedge, Umbrella>
45

$$$$
>  <compound>
CCNC(=O)c1cccc(NC(=O)c2cc(C3(C)CC3)nn2CC)c1 [Compound 306]

>  <Plant response rating, Sedge, Umbrella>
90

$$$$

* * *

Listed here are molecules together with their documented Surinam Grass plant response rating.
# System: Surinam grass
# methodSummary: Test B pre-/postemergence herbicide test
# Format: in vivo, Urochloa decumbens
# conditionDescription: 125 g ai/ha; visual rating, scale 0 (no effect) to 100 (complete control); postemergence

>  <structureNotation>
Cc1nn(C(C)C)nc1C(=O)Nc1cccc(C(=O)N2CC=CC2)c1

>  <Surinam Grass plant response rating>
0

$$$$
>  <structureNotation>
CCNC(=O)c1ccc(F)c(NC(=O)c2nn(C(C)(C)C)nc2C)c1

>  <Surinam Grass plant response rating>
0

$$$$
>  <structureNotation>
CCNC(=O)c1cccc(NC(=O)c2nn(C(C)(C)C)nc2C)c1

>  <Surinam Grass plant response rating>
10

$$$$
>  <structureNotation>
Cc1nn(C(C)C)nc1C(=O)Nc1cc(C(=O)N(C)C)ccc1F

>  <Surinam Grass plant response rating>
0

$$$$
>  <structureNotation>
CCc1nn(C(C)(C)CC)nc1C(=O)Nc1cc(C(=O)N(C)C)ccc1F

>  <Surinam Grass plant response rating>
0

$$$$

* * *

# System: Surinam grass
# methodSummary: Test C pre-/postemergence herbicide test
# Assay type: in vivo, Urochloa decumbens
# conditionDescription: 62 g ai/ha; preemergence
measuredParameter: Plant response rating (0 = no effect, 100 = complete control), Surinam Grass

>  <structureNotation>
CCCN1CCc2c(NC(=O)c3cc(C(C)(C)C)nn3CC)cccc2C1=O

>  <observedMeasurement>
0

$$$$
>  <structureNotation>
CCn1nc(C(C)(C)C)cc1C(=O)Nc1cccc2c1CCN(C1CC1)C2=O

>  <observedMeasurement>
0

$$$$
>  <structureNotation>
CCOC(=O)c1cc(NC(=O)c2cc(C(C)(C)C)nn2CC)ccc1OC

>  <observedMeasurement>
0

$$$$
>  <structureNotation>
CCOC(=O)c1cccc(NC(=O)c2cc(C(C)(C)C)nn2CC)c1C

>  <observedMeasurement>
10

$$$$
>  <structureNotation>
CCn1nc(C(C)(C)C)cc1C(=O)Nc1cccc2c1CN(C)C2=O

>  <observedMeasurement>
0

$$$$

* * *

# Test system: common ragweed
# methodSummary: Test C pre-/postemergence herbicide test
# Format: in vivo, Ambrosia elatior
# Design: key: 0 = no effect, 100 = complete control
# conditionDescription: 62 g ai/ha; preemergence; scale 0 to 100
Plant response rating, Ragweed vs 80: at or above is y, below is n.

>  <compound>
CCNC(=O)c1cccc(NC(=O)c2sc(C(C)(C)C)nc2CC)c1 [Compound 210]

>  <answerLabel>
n

$$$$
>  <compound>
CCn1nc(C(C)(C)C)cc1C(=O)Nc1cc(C(=S)N(C)C)ccc1F [Compound 294]

>  <answerLabel>
y

$$$$
>  <compound>
CCn1nc(C2(C)CC2)cc1C(=O)Nc1cc(C(=O)N(C)C)ccc1F [Compound 299]

>  <answerLabel>
y

$$$$
>  <compound>
CCNC(=O)c1cccc(NC(=O)c2cc(C3(C)CC3)nn2CC)c1 [Compound 306]

>  <answerLabel>
n

$$$$
>  <compound>
CCn1nc(C(C)(C)C)cc1C(=O)Nc1cc(C(=S)N(C)C)ccn1 [Compound 334]

>  <answerLabel>
n

$$$$
>  <compound>
CCn1nc(C(C)(C)C)cc1C(=O)Nc1cccc(C(N)=O)n1 [Compound 162]

>  <answerLabel>
y

$$$$
>  <compound>
CCC1=NN(C(C)(C)C)CC1C(=O)Nc1cc(C(=O)N(C)C)ccc1F (racemic) [Compound 343]

>  <answerLabel>
n

$$$$
